Numbers sourced from the Kinase Knowledgebase extract (Sharma et al. 2016).

Record type: IC50 measurement. Applies to: EGFR (UniProt P00533)
VALUE_TYPE: IC50

>>> value_observed("CN1CCN(Cc2cccc(Nc3ncnc(Nc4ccc5c(cnn5Cc5ccccc5)c4)n3)c2)CC1")
"> 4.5 µg/mL"
>>> value_observed("COc1cc(Nc2ncnc(-n3ccc4ccc(Cl)cc43)n2)cc(OC)c1OC")
"3.5 to 4.5 µg/mL"
>>> value_observed("COc1cc(Nc2ncnc(-c3cccnc3NCCCN)n2)cc(OC)c1OC")
"> 4.5 µg/mL"
>>> value_observed("COc1cc(Nc2ncnc(Nc3ccc(Oc4ccccc4)cc3)n2)cc(OC)c1OC")
"< 0.4 µg/mL"
>>> value_observed("CN(c1cccc(Cl)c1)c1ncnc(Nc2cccc(CNC(=O)O[C@@H]3CCOC3)c2)n1")
"< 0.4 µg/mL"
>>> value_observed("CN(c1cccc(Cl)c1)c1ncnc(NC2CCN(Cc3ccccc3)CC2)n1")
"0.4 to 2.4 µg/mL"
>>> value_observed("COc1cc(Nc2ncnc(N(C)c3ccc4c(cnn4Cc4ccccc4)c3)n2)cc(OC)c1OC")
"< 0.4 µg/mL"
>>> value_observed("CN(c1cccc(Cl)c1)c1ncnc(Nc2ccc3nn(Cc4ccccc4)cc3c2)n1")
"< 0.4 µg/mL"
>>> value_observed("COc1ccc(Nc2ncnc(NCC(=O)c3ccccc3)n2)cc1OC")
"2.4 to 3.5 µg/mL"
>>> value_observed("CN(c1cccc(Cl)c1)c1ncnc(Nc2ccc(F)c(C(F)(F)F)c2)n1")
"0.4 to 2.4 µg/mL"
>>> value_observed("COc1cc(C)c(Nc2ncnc(Nc3cc(-c4ccco4)n[nH]3)n2)cc1OC")
"0.4 to 2.4 µg/mL"
>>> value_observed("CN(c1cccc(Cl)c1)c1ncnc(Nc2cccc(Cn3ccnn3)c2)n1")
"< 0.4 µg/mL"
>>> value_observed("COc1ccc(Nc2ncnc(Nc3cc(OC)c(OC)c(OC)c3)n2)cc1OC")
"3.5 to 4.5 µg/mL"
>>> value_observed("COc1cc(Nc2ncnc(N3CCCc4ccccc43)n2)cc(OC)c1OC")
"< 0.4 µg/mL"
>>> value_observed("C#Cc1cccc(Nc2ncnc(-n3c(=O)[nH]c4ccccc43)n2)c1")
"0.4 to 2.4 µg/mL"
>>> value_observed("c1ccc(Cn2ncc3cc(Nc4ncnc(Nc5ccc6ncsc6c5)n4)ccc32)cc1")
"< 0.4 µg/mL"
>>> value_observed("COc1cc(Nc2ncnc(Nc3nc4ccccc4n3C)n2)cc(OC)c1OC")
"> 4.5 µg/mL"
>>> value_observed("COCCOc1ccc(Nc2ncnc(-c3ccccc3)n2)cc1")
"> 4.5 µg/mL"
>>> value_observed("Nc1nc2ccccc2n1-c1ncnc(Nc2ccccn2)n1")
"> 4.5 µg/mL"
>>> value_observed("COc1cc(Nc2ncnc(-c3cc4ccccc4s3)n2)cc(OC)c1OC")
"> 4.5 µg/mL"
>>> value_observed("NC(=O)c1ccc(Nc2ncnc(-c3cccnc3NCc3ccccc3)n2)cc1")
"0.4 to 2.4 µg/mL"
>>> value_observed("O=c1[nH]c2ccccc2n1-c1ncnc(Nc2ccc(NS(=O)(=O)c3ccc([N+](=O)[O-])cc3)cc2)n1")
"0.4 to 2.4 µg/mL"
>>> value_observed("COc1cc(Nc2ncnc(Nc3ncnc4[nH]cnc34)n2)cc(OC)c1OC")
"> 4.5 µg/mL"
>>> value_observed("COc1cc(Nc2ncnc(Nc3cc(OC)c(OC)c(OC)c3)n2)cc(OC)c1")
"> 4.5 µg/mL"
>>> value_observed("COc1cc(Nc2ncnc(N3c4ccccc4CC3C)n2)cc(OC)c1OC (stereo unspecified)")
"0.4 to 2.4 µg/mL"
>>> value_observed("COc1ccc(N(C)c2ncnc(Nc3cc(OC)c(OC)c(OC)c3)n2)cc1")
"0.4 to 2.4 µg/mL"
